biological target: recombinant rat FAAH (rFAAH) (Rattus norvegicus, UniProt P97612); construct: expressed in transfected cells; host or cells: HEK293-rFAAH cells (homogenate supernatant); assay: FAAH enzyme activity assay (AEA hydrolysis, HPLC-MS/MS); assay type: biochemical; details: rFAAH enzyme assay
QUANTITY: FAAH inhibitory activity (in words)

CCCCCCCn1cc(F)c(=O)[nH]c1=O | not inhibited at all
CCCCCCCn1ccc(=O)[nH]c1=O | not inhibited at all

* * *

Each item that follows carries a reported IC50.
Molecular target: recombinant rat FAAH (rFAAH) (Rattus norvegicus, UniProt P97612)
Construct: expressed in transfected cells; host or cells: HEK293-rFAAH cells (homogenate supernatant)
Sequence (P97612 1-579): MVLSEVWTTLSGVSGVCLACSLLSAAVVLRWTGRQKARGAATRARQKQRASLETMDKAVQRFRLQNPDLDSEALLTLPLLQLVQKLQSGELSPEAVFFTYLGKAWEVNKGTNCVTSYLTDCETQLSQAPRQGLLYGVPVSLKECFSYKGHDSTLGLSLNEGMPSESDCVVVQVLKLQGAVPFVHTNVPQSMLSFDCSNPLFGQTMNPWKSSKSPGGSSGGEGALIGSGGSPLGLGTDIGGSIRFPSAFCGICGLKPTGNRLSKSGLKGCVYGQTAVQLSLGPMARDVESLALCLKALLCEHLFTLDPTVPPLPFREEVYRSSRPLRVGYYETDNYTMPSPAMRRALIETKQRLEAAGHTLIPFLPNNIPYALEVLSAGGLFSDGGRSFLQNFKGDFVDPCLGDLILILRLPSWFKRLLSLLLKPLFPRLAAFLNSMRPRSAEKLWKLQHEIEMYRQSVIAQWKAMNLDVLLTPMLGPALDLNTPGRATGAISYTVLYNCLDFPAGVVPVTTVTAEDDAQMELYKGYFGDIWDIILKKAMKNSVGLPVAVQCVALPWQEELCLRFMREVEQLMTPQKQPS
Experiment: FAAH enzyme activity assay (AEA hydrolysis, HPLC-MS/MS)
Type: biochemical
Conditions: rFAAH protein 30 μg from HEK293-rFAAH cells, 25 μM anandamide, 37 °C, 30 min, Tris buffer pH 8.0; read-out: IC50 of FAAH Inhibition
The response must be a number in nM with no trailing unit.

The cases that follow already have their IC50 on record.
Nc1cn(C(=O)NCCc2ccccc2)c(=O)[nH]c1=O [Compound 17] | 1330
CCCCCCNC(=O)n1ccc(=O)n(C)c1=O [Compound 4] | 860

Which IC50 is listed for O=C(NCCc1ccccc1)n1cc(F)c(=O)[nH]c1=O [Compound 10] ?
98

Cited source: paper PMC6274076
